Values compiled from PubChem BioAssay (NCI).

Listing: growth of selected compounds
- System: SNB-75 CNS
- ASSAY: NCI-60 one-dose screen, 48 h (100 = growth as untreated, 0 = no growth, -100 = all killed)
- ASSAY CONTEXT: 10 µM unless noted
This is part of a sample that, as a whole, favours compounds with a hit. Of some 83,000 tested, about 20% had one in any assay.
Give the quantity in %, number only.

A selection of reference data follows.
- COMPOUND: "COc1cc2ncnc(Nc3ccc4c(cnn4C(=O)Nc4ccccc4)c3)c2cc1OC"
  SYSTEM: "SNB-75 CNS"
  growth, %: 114
- COMPOUND: "CCOC(=O)c1c2c(cn1Cc1ccccc1)-c1oncc1CC2"
  SYSTEM: "SNB-75 CNS"
  growth, %: 84

Consider the additional compound presented here.
Query: State the recorded growth for this entry: COC(=O)C(C(=O)OC)C(Br)C(Br)C(Br)c1ccccc1 (stereo not drawn)
Result: 87.4

====

- Tested on: MDA-MB-231 breast
- ASSAY: NCI-60 one-dose screen, 48 h (100 = growth as untreated, 0 = no growth, -100 = all killed)
- ASSAY CONTEXT: 10 µM unless noted
The panel holds about 83,000 compounds, 20% with a hit somewhere; the sample as a whole holds those more often. The source made the active and inactive calls. Rule for the calls: active = growth percent below 10; inactive = the rest.
REPORTED PROPERTY: growth

- COMPOUND: "CC1(C)Oc2cc3oc(=O)ccc3cc2C[C@@H]1OCCOS(=O)(=O)c1ccc(C#N)cc1"
  growth: "94.5% (inactive)"
- COMPOUND: "O=[N+]([O-])c1ccc(-c2ncc(-c3ccc(O)cc3O)[nH]2)cc1"
  growth: "104% (inactive)"
- COMPOUND: "C=C[C@]1(C)C=C2C(=O)[C@@]3(O)OC[C@@]4(CCCC(C)(C)C43O)C2(O)C(O)C1 (stereo partly specified)"
  growth: "98.3% (inactive)"

Consider the additional compound presented here.
Query: State the recorded growth for this entry: O=C1C(=O)c2ccccc2C(O)=C1CCCc1ccc(C2CCCC2)cc1
Result: 56.5% (inactive)

====

- Tested on: HCT-116 colon
- ASSAY: NCI-60 one-dose screen, 48 h
- ASSAY CONTEXT: 10 µM unless noted
The panel holds about 83,000 compounds, 20% with a hit somewhere; the sample as a whole holds those more often. The source made the active and inactive calls. How the source made its calls: active means growth percent below 10; inactive means the rest.
Result category, one only: class 1 for active, class 0 for inactive

Answered cases to consult:
- SMI: "CC(=O)CC(=O)OC/C=C(/C)CCC=C(C)C"
  CLASS ASSIGNMENT: "class 0"
- SMI: "COc1ccc(CNCCCN2C(=O)c3ccc4c5c(ccc(c35)C2=O)C(=O)N(CCCNCc2ccc(OC)c(OC)c2OC)C4=O)c(OC)c1OC"
  CLASS ASSIGNMENT: "class 1"
- SMI: "N/C(=N\\O)c1ccncc1"
  CLASS ASSIGNMENT: "class 0"
- SMI: "CC/C(=N\\Nc1nc2ccccc2n1C)c1ccccn1"
  CLASS ASSIGNMENT: "class 0"

Attention now turns to another entry.
Query: What is the recorded call for this compound in the test? COc1ccc(CN2C(=O)/C(=C\C(=O)c3ccc(OCCN4CCCCC4)cc3)c3ccccc32)cc1
Result: class 1

====

- Test system: SK-MEL-2 melanoma
- ASSAY: NCI-60 one-dose screen, 48 h
- ASSAY CONTEXT: 10 µM unless noted
This is part of a sample that, as a whole, favours compounds with a hit. Of some 83,000 tested, about 20% had one in any assay. Activity calls are given as the source filed them. Rule for the calls: active = growth percent below 10; inactive = the rest.
Result category, one only: active, inactive

- MOLECULE: "CCCCCCC(=O)C(C)C"
  CLASS ASSIGNMENT: "inactive"

Query: What is the recorded call for this molecule in the test? O=S(=O)(Cc1cccc2c(CS(=O)(=O)c3ccc(Cl)cc3)cccc12)c1ccc(Cl)cc1
Result: inactive

Query: What is the recorded call for this molecule in the test? CCCCCCCCCCCC(=O)OC(C)C(=O)Nc1ccccc1 (stereo unspecified)
Result: inactive
